- SUBJECT OF TEST: Wnt-responsive promoter (TCF/LEF)
- PROCEDURE SUMMARY: Wnt-dependent luciferase reporter assay
pEC50: −log10 of the molar value. Where a SMILES comes first, the peptide text is derived from it.
VALUE KIND: pEC50

Ask | Requested read-out pEC50, target or system Wnt-responsive promoter (TCF/LEF), entry CC[C@H](C)[C@H](NC(=O)[C@H](CC(C)C)NC(=O)[C@H](Cc1ccccc1)NC(=O)[C@@H](N)Cc1c[nH]c2ccccc12)C(=O)N[C@@H](CO)C(=O)N[C@@H](CO)C(=O)N[C@@H](Cc1c[nH]c2ccccc12)C(=O)O [compound 97] (H-WFLISSW-OH)
Reply | 4.52 to 4.65

Ask | Requested read-out pEC50, target or system Wnt-responsive promoter (TCF/LEF), entry CC[C@H](C)[C@H](NC(=O)[C@H](CC(C)C)NC(=O)C(C)(Cc1ccccc1)NC(=O)[C@H](Cc1c[nH]c2ccccc12)NC(=O)[C@@H](N)CCSC)C(=O)N[C@@H](CO)C(=O)N[C@@H](Cc1ccccc1)C(=O)N[C@@H](Cc1c[nH]c2ccccc12)C(=O)NCC(=O)O (some centres unmarked) [compound 133] (HELM PEPTIDE1{M.W.[CC(Cc1ccccc1)(N[*:1])C(=O)[*:2]].L.I.S.F.W.G}$$$$V2.0)
Reply | < 4.52

Ask | Requested read-out pEC50, target or system Wnt-responsive promoter (TCF/LEF), entry CC[C@H](C)[C@H](NC(=O)[C@H](CC(C)C)NC(=O)[C@H](Cc1ccccc1)NC(=O)[C@H](Cc1c[nH]c2ccccc12)NC(=O)[C@@H](NC(=O)[C@H](CCCNC(=N)N)NC(=O)[C@H](CO)NC(=O)[C@@H](N)CCSC)[C@@H](C)CC)C(=O)N[C@@H](CO)C(=O)N[C@@H](Cc1ccccc1)C(=O)N[C@@H](Cc1c[nH]c2ccccc12)C(=O)NCC(=O)O [compound 55] (H-MSRIWFLISFWG-OH)
Reply | > 5.12

Ask | Requested read-out pEC50, target or system Wnt-responsive promoter (TCF/LEF), entry CC[C@H](C)[C@@H]1NC(=O)[C@H](CC(C)C)NC(=O)[C@H](Cc2ccccc2)NC(=O)[C@H](Cc2c[nH]c3ccccc23)NC(=O)[C@@H](N)CC(=O)NCCCC[C@@H](C(=O)NCC(=O)O)NC(=O)[C@H](Cc2c[nH]c3ccccc23)NC(=O)[C@H](C)NC(=O)[C@H](CS)NC1=O [compound 178] (HELM PEPTIDE1{D.W.F.L.I.C.A.W.K.G}$PEPTIDE1,PEPTIDE1,1:R3-9:R3$$$V2.0)
Reply | > 5.12

Ask | Requested read-out pEC50, target or system Wnt-responsive promoter (TCF/LEF), entry CCCCCCCCCCCCCCCC(=O)N[C@@H](Cc1c[nH]c2ccccc12)C(=O)N(C)[C@@H](Cc1c[nH]c2ccccc12)C(=O)N[C@@H](CCC(=O)O)C(=O)NC(C)(CO)C(=O)N[C@H](C(=O)N[C@@H](CC(C)C)C(=O)N[C@@H](CC(=O)O)C(=O)N[C@@H](CCC(=O)O)C(=O)N[C@@H](Cc1c[nH]cn1)C(=O)NC(C)(C(=O)N[C@@H](CCC(N)=O)C(=O)N[C@@H](CCCNC(=N)N)C(=O)N[C@H](C(=O)N[C@@H](Cc1c[nH]c2ccccc12)C(=O)NCC(=O)O)C(C)C)C(C)C)[C@@H](C)CC (single isomer, unassigned)
Reply | 4.82 to 5.12

Ask | Requested read-out pEC50, target or system Wnt-responsive promoter (TCF/LEF), entry CC[C@H](C)[C@H](NC(=O)[C@H](CC(C)C)NC(=O)[C@H](Cc1ccccc1)NC(=O)[C@H](Cc1c[nH]c2ccccc12)NC(=O)[C@H](CCSC)NC(C)=O)C(=O)N[C@@H](CS)C(=O)N[C@@H](Cc1ccccc1)C(=O)N[C@@H](Cc1c[nH]c2ccccc12)C(=O)NCCCC(=O)O [compound 197] (HELM PEPTIDE1{[ac].M.W.F.L.I.C.F.W.[O=C(O)CCCN[*:1]]}$$$$V2.0)
Reply | > 5.12
